Molecular target: Heat shock protein beta-1 (Homo sapiens) (UniProt P04792)
Sequence (P04792 whole entry): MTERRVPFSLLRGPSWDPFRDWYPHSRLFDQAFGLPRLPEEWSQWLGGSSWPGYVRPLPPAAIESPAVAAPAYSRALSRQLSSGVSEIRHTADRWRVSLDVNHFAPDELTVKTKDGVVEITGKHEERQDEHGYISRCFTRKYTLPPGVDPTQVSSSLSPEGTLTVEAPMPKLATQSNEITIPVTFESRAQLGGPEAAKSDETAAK
Experiment: Induction of abnormal HSP27 dimerization in human NCI-H460 cells assessed as potentiation of 17-AAG-induced increase in cleaved PARP levels at 10 uM after 24 hrs by Western blot analysis
Type: cell-based
Active and inactive are the calls of the source. The calls are words filed in the database; no cut-off is given here.
Outcomes: Yes = active, No = inactive

compound: O=c1cc(-c2ccccc2)oc2cc(OCC3CS3)cc(OCC3CS3)c12 (stereo not given)
system-name: Heat shock protein beta-1 (Homo sapiens) (UniProt P04792)
category-label: Yes

compound: Cc1cc(=O)c2c(OCC3CS3)cc(OCC3CS3)cc2o1 (stereo not given)
system-name: Heat shock protein beta-1 (Homo sapiens) (UniProt P04792)
category-label: Yes

compound: COc1cc(OCC2CS2)c2c(=O)c3ccccc3oc2c1 (stereo not given)
system-name: Heat shock protein beta-1 (Homo sapiens) (UniProt P04792)
category-label: No

compound: O=c1c2ccccc2oc2cc(OCC3CS3)cc(OCC3CS3)c12 (stereo not given)
system-name: Heat shock protein beta-1 (Homo sapiens) (UniProt P04792)
category-label: Yes

compound: Cc1cc(=O)c2c(O)cc(OCC3CS3)cc2o1 (stereo not given)
system-name: Heat shock protein beta-1 (Homo sapiens) (UniProt P04792)
category-label: Yes

----------
Molecular target: Heat shock protein beta-1 (Homo sapiens) (UniProt P04792)
Assay: Induction of abnormal recombinant HSP27 (unknown origin) dimerization after 3 hrs by Western blot analysis
Active and inactive are the calls of the source. No cut-off for these calls is given here.
Outcomes: yes (active), no (inactive)

compound: Cc1cc(=O)c2c(O)cc(OCC3CS3)cc2o1 (stereo not drawn)
category-label: yes
--
compound: O=c1cc(-c2ccccc2)oc2cc(OCC3CS3)cc(OCC3CS3)c12 (stereo not drawn)
category-label: yes
--
compound: COc1cc(OCC2CS2)c2c(=O)c3ccccc3oc2c1 (stereo not drawn)
category-label: no
--
compound: Cc1cc(=O)c2c(OCC3CS3)cc(OCC3CS3)cc2o1 (stereo not drawn)
category-label: yes
--
compound: O=c1cc(-c2ccccc2)oc2cc(OCC3CO3)cc(O)c12 (stereo not drawn)
category-label: no
--
compound: O=c1c2ccccc2oc2cc(OCC3CS3)cc(OCC3CS3)c12 (stereo not drawn)
category-label: yes
--
compound: O=c1cc(-c2ccccc2)oc2cc(OCC3CO3)cc(OCC3CO3)c12 (stereo not drawn)
category-label: yes
--
compound: O=c1cc(-c2ccccc2)oc2cc(OCC3CS3)cc(O)c12 (stereo not drawn)
category-label: yes

----------
Target: Heat shock protein beta-1 (Homo sapiens)
Assay: Induction of abnormal HSP27 dimerization in human NCI-H460 cells assessed as potentiation of 17-AAG-induced increase in cleaved caspase-7 levels at 10 uM after 24 hrs by Western blot analysis
Assay type: cell-based
Activity calls are given as the source filed them. The rule behind the calls is not given here.
Outcomes: 1 for active, -1 for inactive

compound: Cc1cc(=O)c2c(OCC3CS3)cc(OCC3CS3)cc2o1 (stereo not given)
category-label: 1

compound: COc1cc(OCC2CS2)c2c(=O)c3ccccc3oc2c1 (stereo not given)
category-label: -1

compound: O=c1cc(-c2ccccc2)oc2cc(OCC3CS3)cc(OCC3CS3)c12 (stereo not given)
category-label: 1

compound: O=c1c2ccccc2oc2cc(OCC3CS3)cc(OCC3CS3)c12 (stereo not given)
category-label: 1

compound: Cc1cc(=O)c2c(O)cc(OCC3CS3)cc2o1 (stereo not given)
category-label: 1
